# System: chick embryo vitelline capillaries
# MEASUREMENT_DESCRIPTION: Chick embryo vitelline capillary regression assay
# Type: in vivo
# Parameters: key: +: Vascular reactivity; 0: No vascular reactivity; +/-: Equivocal reactivity
# MEASUREMENT_CONDITIONS: 0.01 μg applied
# Experimental: Using the chick embryo vitelline capillaries assay, compounds were tested for their ability to induce capillary regression. Each compound was applied in 0.1 ml of 15% Ficol 400 and PBS onto the embryo, and vascular regression was assessed after 60 minutes. The 3-day chick embryo consists of an embryonic disc from which numerous vessels emerge and return, forming a "FIG. 8"-shaped structure--the embryo in the center with vascular loops extending outward over both poles. […]
molecules and their reported Vitelline capillary regression
ASSAY_ENDPOINT: Vitelline capillary regression

SMILES_STRING | ASSAY_ENDPOINT | OBSERVED_RESULT
C[C@H](CCC(=O)O)[C@H]1CC[C@H]2[C@@H]3[C@H](O)C[C@H]4C[C@H](NCCCNCCCCN)CC[C@]4(C)[C@H]3CC[C@]12C | Vitelline capillary regression | 0
COC(=O)CC[C@@H](C)[C@H]1CC[C@H]2[C@@H]3[C@H](O)C[C@H]4C[C@@H](NCCCNCCCCNCCCN)CC[C@]4(C)[C@H]3CC[C@]12C | Vitelline capillary regression | 0
CC(C)CCC[C@@H](C)[C@H]1CC[C@H]2[C@@H]3[C@H](O)C[C@H]4C[C@@H](NCCCNCCCCN)CC[C@]4(C)[C@H]3CC[C@]12C | Vitelline capillary regression | 0

---

# Test system: chick embryo vitelline capillaries
# MEASUREMENT_DESCRIPTION: Chick embryo vitelline capillary regression assay
# Type: in vivo
# Design: key: +: Vascular reactivity; 0: No vascular reactivity; +/-: Equivocal reactivity
# MEASUREMENT_CONDITIONS: 0.01 μg applied

SMILES_STRING | Vitelline capillary regression
C[C@H](CCC(=O)O)[C@H]1CC[C@H]2[C@@H]3CC[C@H]4C[C@@H](NCCCNCCCCN)CC[C@]4(C)[C@H]3CC[C@]12C | +
COC(=O)CC[C@@H](C)[C@H]1CC[C@H]2[C@@H]3[C@H](O)C[C@@H]4C[C@@H](NCCCNCCCCNCCCN)CC[C@]4(C)[C@H]3CC[C@]12C | 0
COC(=O)CC[C@@H](C)[C@H]1CC[C@H]2[C@@H]3[C@H](O)C[C@@H]4C[C@H](NCCN)CC[C@]4(C)[C@H]3CC[C@]12C | +/-

---

# System: chick embryo vitelline capillaries
# MEASUREMENT_DESCRIPTION: Chick embryo vitelline capillary regression assay
# Type: in vivo
# Set-up: key: +: Vascular reactivity; 0: No vascular reactivity; +/-: Equivocal reactivity
# MEASUREMENT_CONDITIONS: 0.01 μg applied

COMPOUND | Vitelline capillary regression
CC(C)CCC[C@@H](C)[C@H]1CC[C@H]2[C@@H]3[C@H](O)C[C@H]4C[C@@H](N)CC[C@]4(C)[C@H]3CC[C@]12C [Compound 364] | 0
C[C@H](CCC(=O)O)[C@H]1CC[C@H]2[C@@H]3[C@H](O)C[C@@H]4C[C@H](NCCCNCCCCNCCCN)CC[C@]4(C)[C@H]3CC[C@]12C [Compound 412] | 0
